Multiple publications report Ki for Beta-secretase 2 (Homo sapiens); what follows is a combined list.

{"columns": ["molecule", "measured-target", "meas-value"],
 "data": [
  ["COC[C@H]1C[C@@H]2[C@](c3cc(Oc4cc(F)cnc4F)ccc3F)(CO1)NC(=N)N(C)S2(=O)=O", "Beta-secretase 2 (Homo sapiens)", "10 nM"],
  ["CC(C)CNC(=O)C(NC(=O)C(C)CC(O)C(CC(C)C)NC(=O)c1cc(C(=O)N(C)C(C)c2ccccc2)cc(N(C)S(C)(=O)=O)c1)C(C)C (stereo not shown)", "Beta-secretase 2 (Homo sapiens)", "< 405 nM"],
  ["COc1cnc(C(=O)Nc2ccc(F)c([C@]3(C)CS(=O)(=O)C4(CC4)C(=N)N3)c2)cn1", "Beta-secretase 2 (Homo sapiens)", "< 20 nM"]
]}

Attention now turns to another entry.
Name the recorded Ki for COc1cnc(C(=O)Nc2ccc(F)c([C@]3(C)CS(=O)(=O)[C@@]4(CCOC4)C(=N)N3)c2)cn1 .
< 50 nM
